Tested on: Hs-578T
Assay: NCI tumour cell line growth inhibition, 48 h
Active and inactive are the calls of the source. Cut-off read from the data, not from the text of the source: active = GI50 up to about 1.1 µM and inactive = higher.
Please reply with one of these outcomes: active, inactive

Recorded test outcome, item Cc1cccc(Cl)c1NC(=O)/C=C/c1ccccc1
inactive

What did the test return for CC(C)CCCCCCCCCCCCC(=O)NCC(=O)NC1C(O)C(O)C(Nc2[nH]cnc3ncnc2-3)OC1C(O)CO (stereo not drawn) ?
active

What did this assay record as the result for O=C1C2=Nc3ccccc3C(O)N2c2ccccc21 (stereo not drawn) ?
inactive

###

System: CCRF-CEM
Assay: NCI tumour cell line growth inhibition, 48 h
Active and inactive are the calls of the source. Cut-off read from the data, not from the text of the source: active = GI50 up to about 1.1 µM and inactive = higher.
Select the matching outcome among True = active, False = inactive

FC(F)(F)c1cccc(COCCN2CCN(Cc3cccc(C(F)(F)F)c3)CC2)c1	False
O=C(O)CN1CCN(CC(=O)O)CCN(CC(=O)O)CC1	False
Clc1ccc(-c2c(C3=NCCN3)nnn2-c2ccccc2)cc1	False

Any idea what this test logged for CCC(C)[C@@H](NCc1ccccc1)[C@H](OCc1ccccc1)[C@@H]1COC(C)(C)O1 (stereo partly specified) ?
False

I'd appreciate the recorded outcome for O=C(Cn1c(=O)oc2ccccc21)N(c1ccccc1)c1ccccc1 from this test.
False

Which outcome was entered for the molecule O=C1C=C(N2CCCC2)C=C(N2CCCC2)C1 in this test?
False

Which outcome did this test record for the molecule COc1ccc2c(c1)c1nn(CCN3CCCCC3)c3ccc4c(=O)n(CCN(C)C)c(=O)n2c4c13 ?
True

What classification did COc1ccc(-c2oc3c(OC)c(OC)c(OC)c(OC)c3c(=O)c2OC)cc1OC [3,5,6,7,8,3',4'-HEPTAMETHOXYFLAVONE] end up with in this test?
False

Could you kindly confirm the outcome this assay logged for COc1cc(/C=C/C(=O)CC(=O)/C=C/c2cc(OC)c(O)c(OC)c2)cc(OC)c1O ?
False

###

Tested on: T47D
Assay: NCI tumour cell line growth inhibition, 48 h
Activity calls are given as the source filed them. Cut-off read from the data, not from the text of the source: active = GI50 up to about 1.1 µM and inactive = higher.
Attribute: GI50

Here's what some known entries look like.
CC(=O)NC1C(O)C(O)C(CO)OC1n1nc(SCc2ccccc2)c(=O)[nH]c1=O (stereo not given)	> 100 µM (inactive)
O=c1[nH][nH]c(=S)c(=O)[nH]1	> 100 µM (inactive)

GET /value?item= CC(C)(C)OC(=O)N(O)CCCn1cnc2c(NC3CC3)ncnc21 &field=GI50 returns > 100 µM (inactive)

Form field GI50, entry CN1CC2=C(N=C(S)NC2c2ccc(Cl)cc2)/C(=C/c2ccc(Cl)cc2)C1 (stereo not given) : 15 µM (inactive)

// recorded GI50 for CC(C)CCc1n[nH]c(=O)n1/N=C\c1ccccc1 : > 100 µM (inactive)

GI50 reading for C=C1C(=O)OC2CC3(C)OC3CC/C(C)=C/C(OC(C)=O)C12 (stereo not given) : 3.76 µM (inactive)

Noted for COc1cc2c(cc1OC)CN1CCCc3cc(OC)c(OC)cc3C1C2 (stereo not given) : its GI50 reads 22.9 µM (inactive)

// GI50 value for C[C@H]1S[C@H](c2c(Cl)cccc2Cl)N2Cc3ccccc3N=C12 : 12.4 µM (inactive)

Reported GI50 ( Cc1cc(=O)oc2cc(SC(=O)N(C)C)ccc12 ) = > 100 µM (inactive)

Form: molecule = C=C[C@H]1CC[C@H]2[C@@H]3CC=C4C[C@@H](OC5OCC(O)C(O)C5O)CC[C@]4(C)[C@H]3CC[C@]12C (stereo not given in full) ; GI50 = 14.3 µM (inactive)

###

Tested on: HOP-62
Assay: NCI tumour cell line growth inhibition, 48 h
Active and inactive are the calls of the source. No stated cut-off is given here; in the data, active = GI50 up to about 1.1 µM and inactive = higher.
Listed here are molecules together with their documented GI50.

Form field GI50, entry N=C(N)N/N=C/c1oc(-c2ccc(S(=O)(=O)O)o2)c(-c2ccc(S(=O)(=O)O)o2)c1[N+](=O)[O-] : > 100 µM (inactive)

The measured GI50 associated with Cc1ccc(NC(=O)C(=O)C(C(=O)c2ccc3ccccc3c2)C2OC(=O)c3ccccc32)c(C)c1 (stereo not given) reads 6.12 µM (inactive)

# molecule O=Cc1cn(S(=O)(=O)c2ccccc2)c2ccccc12 ; its GI50 = > 100 µM (inactive)

Per the records, this molecule ( Cc1cc2c(c(/C=N/Cc3ccccc3)c1)OC1(C=C2)Oc2ccccc2C(=O)N1C (stereo not given) ) has GI50 equal to 31.6 µM (inactive)

Lab book: GI50 of O=C1/C(=C\c2cccc(Oc3ccccc3)c2)SC(c2ccccc2)N1c1ccccc1 (stereo not given) noted as > 100 µM (inactive)

Lookup result for O=S(=O)(O)c1cc(Nc2ccnc3ccccc23)c2c(S(=O)(=O)O)cc(S(=O)(=O)O)cc2c1 ; measured GI50: > 100 µM (inactive)

The molecule identified as O=C1C=C(N2CCCC2)C=C(N2CCCC2)C1 registered its GI50 at > 100 µM (inactive)

Form: molecule = O=C(Nc1cccc2ccccc12)Oc1ccccc1C1CCCCC1 ; GI50 = 19 µM (inactive)

Lab book: GI50 of CN(C)/C=N/c1cc(=O)n(C)c(=O)n1C noted as > 100 µM (inactive)

Measured GI50 of COc1cc(Oc2c(O)c(C)c(OC)c(C(C)=O)c2O)c(C(C)=O)c(O)c1C : 34.3 µM (inactive)

###

Test system: NCI-H522
Assay: NCI tumour cell line growth inhibition, 48 h
The source made the active and inactive calls. Rule as the data show it: active = GI50 up to about 1.1 µM and inactive = higher.
The reply should be one of these categories: active, inactive

Please state the recorded outcome for this compound: CC(=O)O[C@H]1CC2C(C3CCC(C(C)CCC(=O)O)[C@]31C)[C@H](OC(C)=O)C[C@@H]1CC3(CC[C@]21C)OOC1(CC[C@]2(C)C4C[C@H](OC(C)=O)[C@]5(C)C(C(C)CCC(=O)O)CCC5C4[C@H](OC(C)=O)C[C@@H]2C1)OO3 (stereo not given in full)
inactive

Write down the call the test reported for this compound. Item: O=C1NC2(CCCCC2)C2CCCCC=C12 (stereo not given)
inactive

Name the outcome recorded for O=C(Nc1ccc(Cl)cc1)c1cc([N+](=O)[O-])ccc1O in the assay.
inactive

Per the assay record, what outcome was assigned to Nc1nc(N)c(CCCCc2ccccc2)c(/C=C/c2ccc([N+](=O)[O-])cc2)n1 ?
inactive

###

System: MDA-N
Assay: NCI tumour cell line growth inhibition, 48 h
The source made the active and inactive calls. Cut-off read from the data, not from the text of the source: active = GI50 up to about 1.1 µM and inactive = higher.
Reported GI50 values for a set of molecules

Some solved cases for reference:
CCOc1cc(C(c2c(O)c3ccccc3oc2=O)c2c(O)c3ccccc3oc2=O)ccc1OC	18.1 µM (inactive)
CCN(CC)CCCn1c(=O)c2cccnc2n2c3c(=O)n(C)c(=O)n(C)c3nc12	> 100 µM (inactive)
CCOC(=O)C1=C(C)N(Cc2ccccc2)C2(O)C=CC(=O)C3C(=O)N(c4ccccc4)C(=O)C132 (stereo not given)	3.61 µM (inactive)
NC(CSC1(c2ccc(Cl)cc2)c2ccccc2-c2ccccc21)C(=O)O (stereo not given)	> 100 µM (inactive)
C1=NN2C(c3ccccc3)=NOC2C2C(c3ccccc3)=NOC12 (stereo not given)	> 100 µM (inactive)

# value of GI50, MDA-N, item CC(C)CC(NP(=O)(O)OC1OC(C)C(O)C(O)C1O)C(=O)NC(Cc1c[nH]c2ccccc12)C(=O)O (stereo not given) = > 100 µM (inactive)

// GI50 (MDA-N) for COc1ccccc1N1C(=O)CSC1c1c[nH]c2ccccc12 (stereo not given) = > 100 µM (inactive)

###

Test system: RXF 393
Assay: NCI tumour cell line growth inhibition, 48 h
Calls of active or inactive are those of the source. No stated cut-off is given here; in the data, active = GI50 up to about 1.1 µM and inactive = higher.
Your reply should match one of these outcome classes. YES = active, NO = inactive

C=C(CN(C)C)C(=O)c1ccc(OC2OC(COC(C)=O)C(OC(C)=O)C(OC(C)=O)C2OC(C)=O)cc1 (stereo not given)	NO

What call does the record list for O=C1/C(=C\c2cccc(Oc3ccccc3)c2)SC(c2ccccc2)N1c1ccccc1 (stereo not given) ?
NO

What was the test verdict on COC(=O)CC(=O)Nc1sccc1S(=O)(=O)c1ccccc1 ?
NO

###

System: PC-3
Assay: NCI tumour cell line growth inhibition, 48 h
Activity calls are given as the source filed them. No stated cut-off is given here; in the data, active = GI50 up to about 1.1 µM and inactive = higher.
Result category, one only: active, inactive

// below: answered compounds
Cc1ccc(SC2=C(N(C)C)C(=O)c3ccccc3C2=O)cc1	inactive
COc1cc(S(=O)(=O)Nc2ccc(-c3csc(/N=C\c4cccs4)n3)cc2)ccc1Cl	inactive
CC(=O)n1c(COS(C)(=O)=O)nc2ccccc21	inactive

Record lookup: outcome of this test for COC(=O)[C@@]12CN(C)[C@@H](C(C)(C)C)N1C(=O)OC2c1ccccc1 (stereo partly specified) ?
inactive

Field: outcome | Entry: CC(=O)NN/C=N/C(C#N)=C(\N)C#N
inactive

Dear all, I need the recorded test outcome for Cc1cc(C)c2nc3c(c(C(O)C4CCCCN4)c2c1)CC/C3=C\c1ccc(Cl)cc1 (stereo unspecified) , thank you.
inactive

For CC1=NNC(=O)C1C1CC(c2c[nH]c3ccccc23)=NN(C(N)=O)C1=O (stereo unspecified) , what call appears in the results of this test?
inactive

Lab log entry: CC(C)C(/N=C/c1ccccc1O)C(=O)O (stereo unspecified) — outcome as called in the assay?
inactive
